System: various Staphylococcus aureus strains
Experiment: Disc diffusion, Staphylococcus aureus strain study
Format: cell-based
Conditions: Staphylococcus aureus, strain ASARM 71; 500 μg/mL
Tick Criterion met if zone of inhibition at 500 µg/mL is 20 mm or greater. Tick Criterion not met if zone of inhibition at 500 µg/mL is less than 20 mm.

ITEM_SMILES: [C-]#[N+]C=Cc1ccc(O)cc1
CLASS_NAME: Criterion not met
--
ITEM_SMILES: [C-]#[N+]/C=C/c1ccc(NC(C)=O)cc1/C=C/c1ccccc1
CLASS_NAME: Criterion met
--
ITEM_SMILES: [C-]#[N+]C=Cc1ccc(O)c(Br)c1
CLASS_NAME: Criterion met

[ask] Could you verify whether the entry [C-]#[N+]/C=C/c1ccc(O)cc1/C=C/c1ccccc1 shows zone of inhibition at 500 µg/mL of no less than 20 mm?
[reply] Criterion met

---

Each item that follows carries a reported zone of inhibition at 500 µg/mL.
Test system: various Staphylococcus aureus strains
Experiment: Disc diffusion, Staphylococcus aureus strain study
Format: cell-based
Details: Staphylococcus aureus, strain USFL 008; 500 μg/mL
Give just the numeric value; mm need not be written.

Example results:
ITEM_SMILES: [C-]#[N+]C=Cc1cc(Br)ccc1O
RESULT_UNIT: mm
zone of inhibition at 500 µg/mL: 18
//
ITEM_SMILES: [C-]#[N+]C=Cc1ccc(O)cc1
RESULT_UNIT: mm
zone of inhibition at 500 µg/mL: 14
//
ITEM_SMILES: [C-]#[N+]C=Cc1ccc(O)c(Br)c1
RESULT_UNIT: mm
zone of inhibition at 500 µg/mL: 17
//
ITEM_SMILES: [C-]#[N+]/C=C/c1ccc(NC(C)=O)cc1/C=C/c1ccccc1
RESULT_UNIT: mm
zone of inhibition at 500 µg/mL: 28

Consider the additional compound presented here.
[ask] Which measured zone of inhibition at 500 µg/mL value corresponds to [C-]#[N+]/C=C/c1ccc(O)cc1/C=C/c1ccccc1 ?
[reply] 26

---

Test system: Pseudomonas aeruginosa PA01
Assay: Disc diffusion (Kirby-Bauer), zone of inhibition
Assay type: cell-based
Conditions: 500 μg/mL, '/' = no zone
Each item that follows carries a reported zone of inhibition at 500 µg/mL.
Give just the numeric value; mm need not be written.

Example results:
MOLECULE: [C-]#[N+]c1ccc(O)cc1 [Compound 5, 4-Isocyanophenol]
RESULT_UNIT: mm
zone of inhibition at 500 µg/mL: 26
--
MOLECULE: [C-]#[N+]/C=C/c1cn(C(C)C)c2ccccc12 [Compound 29]
RESULT_UNIT: mm
zone of inhibition at 500 µg/mL: 12
--
MOLECULE: [C-]#[N+]/C=C/c1ccccc1O (single isomer, unassigned) [Compound 11, 2-(2-isocyanovinyl)phenol]
RESULT_UNIT: mm
zone of inhibition at 500 µg/mL: 12

Consider the additional molecule presented here.
[ask] Request: zone of inhibition at 500 µg/mL, test system Pseudomonas aeruginosa PA01, entry [C-]#[N+]/C=C/c1ccc(NC(C)=O)cc1/C=C/c1ccccc1 [Compound 41]
[reply] 16

---

Test system: red blood cells
Assay: Hemolysis assay (CO-ADD)
Format: cell-based
Details: 32 μg/mL highest concentration tested
Each item that follows carries a reported Hemolytic activity (HC10).

MOLECULE: [C-]#[N+]/C=C/c1ccccc1/C=C/c1ccccc1 [Compound 38]
EXPERIMENTAL_RESULT: >32 µg/mL

[ask] Which measured Hemolytic activity (HC10) value corresponds to [C-]#[N+]C=Cc1cc(Br)ccc1O [Compound 13] ?
[reply] >32 µg/mL

[ask] Which measured Hemolytic activity (HC10) value corresponds to [C-]#[N+]/C=C/c1ccc(O)cc1/C=C/c1ccccc1 [Compound 36] ?
[reply] >32 µg/mL

[ask] Which measured Hemolytic activity (HC10) value corresponds to [C-]#[N+]/C=C/c1ccc(NC(C)=O)cc1/C=C/c1ccccc1 [Compound 41] ?
[reply] >32 µg/mL

[ask] Which measured Hemolytic activity (HC10) value corresponds to [C-]#[N+]C=Cc1ccc(O)c(Br)c1 [Compound 14] ?
[reply] >32 µg/mL
